System: Type III protein secretion of the chimeric SopE‘-’Bla polypeptide (SPI1 type III protein secretion system)
Test: Primary assay: Type III protein secretion of the chimeric SopE'-'Bla polypeptide by Salmonella enterica
Assay type: cell-based
Conditions: read-out: SopE IC50(μM)
Text: Primary assay: Type III protein secretion of the chimeric SopE‘-’Bla polypeptide by Salmonella enterica. […] The SopE‘-’Bla recombinant polypeptide consists of two functionally distinct domains spliced together. […] It is capable of hydrolyzing nitrocefin resulting in a product whose accumulation can be monitored by colorimetric detection. […]
readoutKind: IC50 (µM)
# number only, unit µM dropped from output

Known IC50 results, listed for orientation:
compound: NC(=O)C[C@@H](NC(=O)/C(=C\c1ccc(Cl)c(Cl)c1)NC(=O)c1ccc(-c2ccccc2)cc1)C(=O)O
result: 16.6
//
compound: O=C(N[C@@H](CSCc1ccccc1)C(=O)O)/C(=C\c1ccccc1Cl)NC(=O)c1ccc(C(F)(F)F)cc1
result: 50
//
compound: O=C(N[C@@H](COCc1ccccc1)C(=O)O)/C(=C\c1ccc(Cl)c(Cl)c1)NC(=O)c1ccc(Cl)cc1
result: 70

Could you now consider this next compound?
Looking for the measured IC50 of CC(C)(S)C(NC(=O)/C(=C\c1ccc(Cl)c(Cl)c1)NC(=O)c1ccc(-c2ccccc2)cc1)C(=O)O (stereo not drawn) , can you help? 5
